Target: UniProt P60174
Sequence (P60174 2-249 limits assumed, species assumed): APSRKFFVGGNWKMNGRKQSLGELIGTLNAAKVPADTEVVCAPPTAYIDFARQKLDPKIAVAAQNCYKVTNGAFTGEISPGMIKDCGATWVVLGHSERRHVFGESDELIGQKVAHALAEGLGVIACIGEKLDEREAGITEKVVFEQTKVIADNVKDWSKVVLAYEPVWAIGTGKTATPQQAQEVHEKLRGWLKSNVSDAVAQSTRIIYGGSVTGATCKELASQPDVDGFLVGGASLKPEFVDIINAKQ
Assay: Triosephosphate isomerase activity under gas
Assay type: biochemical
Details: 10° C.; plus = enhancement
Measured effect by item
Property measured: effect

[
  {
    "Smiles string": "[Ar]",
    "System tested": "UniProt P60174",
    "Property measured": "effect",
    "Val": "+8%"
  },
  {
    "Smiles string": "[Ne]",
    "System tested": "UniProt P60174",
    "Property measured": "effect",
    "Val": "+4%"
  },
  {
    "Smiles string": "[Kr]",
    "System tested": "UniProt P60174",
    "Property measured": "effect",
    "Val": "+12%"
  },
  {
    "Smiles string": "[Xe]",
    "System tested": "UniProt P60174",
    "Property measured": "effect",
    "Val": "+24%"
  }
]
